experimentalProtocol: Pharmacokinetics of crystalline form III, fasting and non-fasting
Assay type: in vivo, Beagle dog
experimentalContext: female, beagle, dog, plasma, po, 100 mg/kg, 100 mg/kg po, Non-fast
measuredMetric: half-life (h)
Report the figure in h without appending any unit label.

# lookup: half-life of COC(=O)N1CCO[C@@H](Cc2c(-c3c(F)cc(S(N)(=O)=O)cc3F)nc3cc(Cl)ccn23)C1 [Crystalline form III] 5.14

----------
experimentalProtocol: Pharmacokinetics of crystalline form III, fasting and non-fasting
Assay type: in vivo, Beagle dog
experimentalContext: female, beagle, dog, whole blood, po, 100 mg/kg, 100 mg/kg po, fast, blood, female; read-out: AUC0-24 h
measuredMetric: AUC(0-t) (µg·h/mL)
Report the figure in µg·h/mL without appending any unit label.

# lookup: AUC(0-t) of COC(=O)N1CCO[C@@H](Cc2c(-c3c(F)cc(S(N)(=O)=O)cc3F)nc3cc(Cl)ccn23)C1 [Crystalline form III] 134
